target: T1, kappa opioid receptor (KOR); experiment: protein binding radioassay
T1 construct: see m12 for the human receptor of the library screen
T1 sequence (P41145 whole entry): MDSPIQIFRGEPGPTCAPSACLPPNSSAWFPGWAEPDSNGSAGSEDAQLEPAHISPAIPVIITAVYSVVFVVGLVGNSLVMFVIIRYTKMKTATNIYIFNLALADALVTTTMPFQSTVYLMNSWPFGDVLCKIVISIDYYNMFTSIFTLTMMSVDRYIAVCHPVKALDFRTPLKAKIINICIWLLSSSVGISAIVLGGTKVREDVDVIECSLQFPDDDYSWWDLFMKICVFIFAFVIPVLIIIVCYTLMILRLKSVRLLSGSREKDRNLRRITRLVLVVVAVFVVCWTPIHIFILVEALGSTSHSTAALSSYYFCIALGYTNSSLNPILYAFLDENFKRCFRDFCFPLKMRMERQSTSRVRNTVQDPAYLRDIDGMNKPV
Bridges are numbered along the chain shown (N, C = ends). Where no end group is shown, it is not given here. [ ]: non-standard residue; d: D form.
readout: Kd (µM)
# value in µM; strip the unit string

Fill in: Kd of Y[dA]GF[dL]KCFRYPNGVLACT (disulfide 7-17) [DADLE-OL II] is ___ 1.08
